system: RARa homodimer (NR concentration 270 nM); experiment: PBM binding z-score (relative to random genomic background probes); higher = stronger binding; sequences stand for … in GC…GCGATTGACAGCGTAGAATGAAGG

| residues | assayed_target | PBM binding z-score |
| --- | --- | --- |
| CCTAGCAGGCCCGGGTCACTCAAGCATTTCGCTT | RARa homodimer (NR concentration 270 nM) | -0.473 |
| TCTAGTCGGTCACGGAGGTCACACACGACGGGTA | RARa homodimer (NR concentration 270 nM) | 1.39 |
| CTACCAAGGTGAACAAGGTCGTCGATTACTATTC | RARa homodimer (NR concentration 270 nM) | 0.41 |
| ATACCAAGGTGGTCGTGAGGTCGTTGATACTAAC | RARa homodimer (NR concentration 270 nM) | 0.748 |
| ATCTCTAGGTAAAAATTCAGTGAATCCCGAGGAT | RARa homodimer (NR concentration 270 nM) | 0.766 |
| CCTACTGGGCCATAAGGTCATTGATATCAACGTT | RARa homodimer (NR concentration 270 nM) | 1.27 |
| TCGAGTAGGTTAGGGGCATACAGAATGGCGTCGA | RARa homodimer (NR concentration 270 nM) | -0.124 |
| TATAGCAGGCCAGAGGGTCACTCAAGAGGTACGG | RARa homodimer (NR concentration 270 nM) | -0.269 |
| CCTATTGGGCCAAAGGTCATTGATTCCAATGCTC | RARa homodimer (NR concentration 270 nM) | 1.8 |
| GCGACTGGGGCATCAGCAGGTTAGCATAACTTAA | RARa homodimer (NR concentration 270 nM) | -0.942 |
| CGAACGAGGGCATGAGTTGACAGCAAATGCCGAT | RARa homodimer (NR concentration 270 nM) | -0.609 |
| GCTTGTAGATTAAGGTTAAGAAAGACTAAGCTAA | RARa homodimer (NR concentration 270 nM) | 0.194 |
| TCATAGAGGTAAAGGTGAAAGTCGAACGATATGA | RARa homodimer (NR concentration 270 nM) | 0.137 |
| ATCTCTAGGTAAAAGTTCAGTGAGTCCCGAGGAT | RARa homodimer (NR concentration 270 nM) | 0.867 |
| CCTACTGGGCCAAAGGTCATTCATTCCAATGCTC | RARa homodimer (NR concentration 270 nM) | 1.85 |
| ACAGACAGGTGAGTGAAGGTAACTTAGCTGGACG | RARa homodimer (NR concentration 270 nM) | -0.0854 |
| TCATTTAGGTAAATGCTAGGTGAAAGTCCGATCT | RARa homodimer (NR concentration 270 nM) | 0.628 |

Hey, just so you know, these numbers are from the supplement of paper PMC6555819.
